Read-out: Broad substrate specificity ATP-binding cassette transporter ABCG2 (Homo sapiens) (UniProt Q9UNQ0)
Sequence (Q9UNQ0 whole entry, looked up): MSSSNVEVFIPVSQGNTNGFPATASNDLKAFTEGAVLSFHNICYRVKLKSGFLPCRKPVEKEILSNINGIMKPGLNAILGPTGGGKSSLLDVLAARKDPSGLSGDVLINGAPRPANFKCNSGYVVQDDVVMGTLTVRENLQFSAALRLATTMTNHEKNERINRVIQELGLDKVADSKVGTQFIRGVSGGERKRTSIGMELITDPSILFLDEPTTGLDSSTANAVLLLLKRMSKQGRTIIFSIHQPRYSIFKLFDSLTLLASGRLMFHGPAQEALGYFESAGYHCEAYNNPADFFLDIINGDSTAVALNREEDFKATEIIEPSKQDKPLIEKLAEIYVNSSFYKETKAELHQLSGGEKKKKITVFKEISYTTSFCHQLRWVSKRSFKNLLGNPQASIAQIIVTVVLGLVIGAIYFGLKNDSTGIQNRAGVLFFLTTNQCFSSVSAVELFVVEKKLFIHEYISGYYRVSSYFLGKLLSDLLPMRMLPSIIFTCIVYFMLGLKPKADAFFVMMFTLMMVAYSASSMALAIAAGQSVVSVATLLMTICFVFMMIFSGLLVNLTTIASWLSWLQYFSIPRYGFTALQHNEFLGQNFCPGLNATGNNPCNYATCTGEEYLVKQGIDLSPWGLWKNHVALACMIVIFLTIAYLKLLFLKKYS
assay_procedure: LTEA_HepaRG_ABCG2: Life Technologies and Expression Analysis (LTEA) Assay for ABC Transporter (ABCG2) using HepaRG (AID 2283465)
run_conditions: mRNA level, 48 h; actives raise or lower the signal
The source made the active and inactive calls. Rule for the calls: active = hit-call score of the fitted dose curve at least 0.9, where 1 is the maximum; inactive = score below 0.9.
Outcomes: active, inactive

- CC1=NNC(=O)N(/N=C/c2cccnc2)C1: inactive
- CCOP(=S)(OCC)OC(Cl)C(Cl)(Cl)Cl (configuration not stated): inactive
- CNC(=O)Oc1cccc2c1OC(C)(C)O2: inactive
- Nc1c(Cl)cc([N+](=O)[O-])cc1Cl: active
- CC(=NC#N)N(C)Cc1ccc(Cl)nc1: inactive
- COP(=O)(OC)OC(Br)C(Cl)(Cl)Br (configuration not stated): inactive
- CCCSP(=O)(OCC)SCCC: inactive
- CNc1cnn(-c2cccc(C(F)(F)F)c2)c(=O)c1Cl: active
- C[Si](Cn1cncn1)(c1ccc(F)cc1)c1ccc(F)cc1: active
- Cc1nn(-c2cc(NS(C)(=O)=O)c(Cl)cc2Cl)c(=O)n1C(F)F: inactive
- CC(C)[C@H](C(=O)O[C@H](C#N)c1cccc(Oc2ccccc2)c1)c1ccc(Cl)cc1: active
- CCc1cccc(CC)c1N(COC)C(=O)CCl: inactive
- CCc1cccc(C)c1N(C(=O)CCl)C(C)COC (configuration not stated): inactive
- CCC(CC)Nc1c([N+](=O)[O-])cc(C)c(C)c1[N+](=O)[O-]: active
- CCC(=NOC/C=C/Cl)C1=C(O)CC(C2CCOCC2)CC1=O (configuration not stated): inactive
- CSc1nc(NC(C)C)nc(NC(C)C)n1: inactive
- COP(=O)(NC(C)=O)SC (configuration not stated): inactive
- N#CSCSC#N: inactive
- C#CC(C)(C)NC(=O)c1cc(Cl)cc(Cl)c1: inactive
- CCNc1nc(Cl)nc(NC(C)(C)C#N)n1: inactive
- CC1(C(=O)Nc2ccc(O)c(Cl)c2Cl)CCCCC1: inactive
- CN(C)NC(=O)CCC(=O)O: inactive
- CCCCN(CC)c1c([N+](=O)[O-])cc(C(F)(F)F)cc1[N+](=O)[O-]: inactive
- CSc1nnc(C(C)(C)C)c(=O)n1N: inactive
- COc1cccc(C(=O)NN(C(=O)c2cc(C)cc(C)c2)C(C)(C)C)c1C: active
- CCc1cnc(C2=NC(C)(C(C)C)C(=O)N2)c(C(=O)O)c1 (configuration not stated): inactive
- CNC(=O)ON=C(SC)C(=O)N(C)C: inactive
- S=C1NCCN1: inactive
- CN1COCN(Cc2cnc(Cl)s2)C1=N[N+](=O)[O-]: inactive
- CCOP(=O)(SC(C)CC)N1CCSC1=O (configuration not stated): inactive
- CN(C)C(=O)Nc1cccc(C(F)(F)F)c1: inactive
- CC[C@H](C)[C@H]1O[C@]2(C=C[C@@H]1C)C[C@@H]1C[C@@H](C/C=C(\C)[C@@H](O[C@H]3C[C@H](OC)[C@@H](O[C@H]4C[C@H](OC)[C@@H](NC)[C@H](C)O4)[C@H](C)O3)[C@@H](C)/C=C/C=C3\CO[C@@H]4[C@H](O)C(C)=C[C@@H](C(=O)O1)[C@]34O)O2: active
- CCOP(=S)(OCC)Oc1cc(C)nc(C(C)C)n1: inactive
- COP(=O)(OC)SCn1c(=O)oc2cc(Cl)cnc21: inactive
- CCC(=O)Nc1ccc(Cl)c(Cl)c1: inactive
- O=C(O)c1cc(Oc2ccc(C(F)(F)F)cc2Cl)ccc1[N+](=O)[O-]: active
- CCOP(=O)(OCC)Oc1cc(C)nc(C(C)C)n1: inactive
- CCCCSP(=O)(SCCCC)SCCCC: active
- COc1ccc(C(=CC(=O)N2CCOCC2)c2ccc(Cl)cc2)cc1OC: inactive
- FC(F)C(F)(F)OCC(Cn1cncn1)c1ccc(Cl)cc1Cl (configuration not stated): active
- CCOP(=S)(Oc1cnc(C(C)(C)C)nc1)OC(C)C (configuration not stated): inactive
- Cc1cc(C2CC2)nc(Nc2ccccc2)n1: inactive
